target: Toll-like receptor 4 (Homo sapiens, UniProt O00206)
Sequence (O00206 whole entry): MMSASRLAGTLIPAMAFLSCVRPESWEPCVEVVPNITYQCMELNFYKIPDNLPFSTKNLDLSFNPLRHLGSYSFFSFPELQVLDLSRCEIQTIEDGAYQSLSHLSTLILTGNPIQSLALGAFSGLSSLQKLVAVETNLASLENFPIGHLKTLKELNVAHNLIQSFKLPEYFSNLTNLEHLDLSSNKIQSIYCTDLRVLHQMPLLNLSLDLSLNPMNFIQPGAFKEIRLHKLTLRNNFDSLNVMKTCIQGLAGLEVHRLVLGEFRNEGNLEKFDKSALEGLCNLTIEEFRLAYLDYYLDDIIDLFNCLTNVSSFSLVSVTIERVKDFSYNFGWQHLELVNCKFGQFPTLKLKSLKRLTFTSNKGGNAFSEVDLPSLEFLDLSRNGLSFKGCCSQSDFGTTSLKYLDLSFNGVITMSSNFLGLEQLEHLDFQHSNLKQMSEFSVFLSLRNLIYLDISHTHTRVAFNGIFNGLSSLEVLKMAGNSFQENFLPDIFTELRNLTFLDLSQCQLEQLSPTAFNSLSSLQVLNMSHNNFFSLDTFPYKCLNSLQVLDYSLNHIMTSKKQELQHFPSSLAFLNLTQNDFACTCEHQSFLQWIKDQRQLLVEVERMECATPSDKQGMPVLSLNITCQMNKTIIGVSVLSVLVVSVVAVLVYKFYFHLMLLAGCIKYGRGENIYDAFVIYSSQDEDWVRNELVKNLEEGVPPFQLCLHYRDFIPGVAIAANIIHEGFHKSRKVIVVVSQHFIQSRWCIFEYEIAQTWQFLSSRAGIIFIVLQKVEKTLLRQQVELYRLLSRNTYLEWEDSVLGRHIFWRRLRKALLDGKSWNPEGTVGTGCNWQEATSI
procedure.details: Inhibition of human TLR4 expressed in HEK-Blue cells assessed as decrease in LPS-induced TLR4 response incubated for 1 hr followed by LPS stimulation and further incubated for 22 hrs by cell based reporter assay

>  <compound>
CCOC(=O)C1=CCCCC1S(=O)(=O)Nc1ccc(F)cc1Cl (racemic)

>  <result.unit>
nM

>  <IC50>
40

$$$$

* * *

procedure.details: Stability of compound in phosphate buffered saline containing 5% DMSO at 0.01 mg/ml at pH 7.4 by HPLC analysis
Format: physicochemical
condition.notes: buffer
readout.kind: Stability

>  <compound>
CCOC(=O)C1=CCCCC1S(=O)(=O)N(C(=O)OCc1ccc([N+](=O)[O-])cc1)c1ccc(F)cc1Cl (racemic)

>  <value.observed>
Unstable

$$$$
>  <compound>
C#CCOC(=O)N(c1ccc(F)cc1Cl)S(=O)(=O)C1CCCC=C1C(=O)OCC (racemic)

>  <value.observed>
Unstable

$$$$
>  <compound>
C#CCN(c1ccc(F)cc1Cl)S(=O)(=O)C1CCCC=C1C(=O)OCC (racemic)

>  <value.observed>
Stable

$$$$
>  <compound>
CCOC(=O)C1=CCCCC1S(=O)(=O)N(Cc1ccc([N+](=O)[O-])cc1)c1ccc(F)cc1Cl (racemic)

>  <value.observed>
Stable

$$$$
